Assay summary: In-cell time-resolved 19F-NMR of prodrug unmasking
Assay type: in vitro ADME
Applied conditions: human, K562 cell suspension (65% v/v cell content), 37 °C, read-out: half-life time of prodrug unmasking in cells
Readout name: half-life at 500 µM

[Q] Consider the compound CC(C)(C)C(=O)OCOP(=O)(OCOC(=O)C(C)(C)C)Oc1ccc(C[C@H](NC(=O)Cc2ccc(F)cc2)C(=O)NCc2cccc(NC(=O)CCl)c2)cc1 and give its recorded half-life at 500 µM.
[A] 1 to 1.5 h

###

Listed compounds paired with reported ITC ΔG
Tested target: SBC2 (Homo sapiens, UniProt O14508)
Construct: SOCS2 (amino acids 32–198); His6 (N, cleaved yes); made in house; host or cells: E. coli BL21(DE3)
Sequence (O14508 32-198): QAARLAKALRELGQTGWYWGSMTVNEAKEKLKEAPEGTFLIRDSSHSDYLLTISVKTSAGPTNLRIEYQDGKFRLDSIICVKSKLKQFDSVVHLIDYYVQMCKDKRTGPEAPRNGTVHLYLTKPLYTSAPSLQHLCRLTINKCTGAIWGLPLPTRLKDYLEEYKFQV
Sequence (Q15370 1-104 partner limits assumed): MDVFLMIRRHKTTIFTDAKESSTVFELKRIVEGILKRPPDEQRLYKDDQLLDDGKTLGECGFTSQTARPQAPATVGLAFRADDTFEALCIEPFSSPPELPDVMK
Sequence (Q15369 17-112 partner limits assumed): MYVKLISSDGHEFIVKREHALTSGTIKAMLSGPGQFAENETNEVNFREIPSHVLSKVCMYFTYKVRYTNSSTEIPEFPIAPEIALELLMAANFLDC
Assay summary: Isothermal titration calorimetry (ITC), direct titration
Format: binding
Your answer is read as kcal/mol, so omit the unit and give the number.

Worked examples, 5 compounds total:
C=CCc1cc(CNC(=O)[C@H](Cc2ccc(OP(=O)(O)O)cc2)NC(=O)Cc2ccc(F)cc2)ccc1F : -8.75
CCc1cc(CNC(=O)[C@H](Cc2ccc(OP(=O)(O)O)cc2)NC(=O)Cc2ccc(F)cc2)ccc1F : -8.59
Cc1cccc(CNC(=O)[C@H](Cc2ccc(OP(=O)(O)O)cc2)NC(=O)Cc2ccc(F)cc2)c1 : -8.12
C=CCc1cccc(CNC(=O)[C@H](Cc2ccc(OP(=O)(O)O)cc2)NC(=O)Cc2ccc(F)cc2)c1 : -8.61
Cc1cc(CNC(=O)[C@H](Cc2ccc(OP(=O)(O)O)cc2)NC(=O)Cc2ccc(F)cc2)ccc1F : -8.23

Please examine the following record next.
[Q] State recorded ITC ΔG with SBC2 (Homo sapiens, UniProt O14508), entry O=C(Cc1ccc(F)cc1)N[C@@H](Cc1ccc(OP(=O)(O)O)cc1)C(=O)NCc1ccc(F)cc1 , no comment.
[A] -7.65
